- experimental_system: Serine hydrolase RBBP9 (Homo sapiens) (UniProt O75884)
- Sequence (O75884 whole entry, looked up): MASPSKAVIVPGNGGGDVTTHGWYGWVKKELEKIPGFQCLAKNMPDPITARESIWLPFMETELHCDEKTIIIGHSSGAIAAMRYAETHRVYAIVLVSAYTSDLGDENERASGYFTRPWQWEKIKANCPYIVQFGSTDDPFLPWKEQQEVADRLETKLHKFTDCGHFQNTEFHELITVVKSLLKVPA
- method_description: human RBBP9 inhibitors, primary screen, biochemical, fluorescence polarization, FP-Rh probe, HTS (AID 1515);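 also: plate controls were DMSO wells with RBBP9 for no effect and wells lacking RBBP9 protein for full effect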
- condition_set: recombinant RBBP9, FP-Rh probe fluorescence polarization; at 7.94 µM; stronger effect = higher value
Hit rate of the full screen: of about 220,000 compounds, about 440 (0.2%) were called active. What follows is part of a selection rich in actives, with near analogues and random picks from the rest.
Some compounds, each annotated with its measured inhibition.

| compound | unit_tag | inhibition |
| --- | --- | --- |
| O=c1[nH]n(-c2ccc([N+](=O)[O-])cc2)c(=O)c2ccccc12 | % | 15.9 |
| COc1cc(/C=C2/C(=O)ON=C2C)ccc1OCc1ccccc1F | % | -7 |
| O=C1C=CC(=O)N1c1ccc(N2CCCCC2)cc1 | % | 14.7 |
| Cc1c(NC(=O)CCC2CCCCC2)cc(C(=O)N2CCOCC2)cc1[N+](=O)[O-] | % | 7.08 |
| Cc1ccc2cc(CCNC(=O)c3c(-c4ccccc4Cl)noc3C)c(=O)[nH]c2c1 | % | -1.48 |
| Cc1ccccc1C(=O)Nc1ccc(N2CCCCCC2)cc1 | % | -6.04 |
| COc1ccc(CCNC(=O)C(=O)Nc2ccc3nc4n(c(=O)c3c2)CCCCC4)cc1OC | % | 6.2 |
| COc1cc(/C=C2/C(=O)ON=C2C)ccc1OCc1cccc(F)c1 | % | -10.5 |
| CC(C)c1ccc2c(c1)c(SC(C)(C)C)c(CC(C)(C)C(=O)O)n2Cc1ccc(Cl)cc1 | % | 5.23 |
| Brc1ccc(-c2n(-c3ccccn3)c3ccccc3[n+]2-c2ccccn2)cc1 | % | 0.06 |
| CN(/C(=N/S(=O)(=O)c1cccs1)c1ccccc1)c1ccc(O)cc1 | % | -5.39 |
| O=c1[nH][nH]c(=O)c2cc(N3CCCC3)ccc12 | % | 0.44 |
| CC(C)n1c(=S)[nH]c2cc(C(F)(F)F)ccc21 | % | -5.5 |
| COC(=O)CC(=O)N1CCN(c2ccc(Cl)c(Cl)c2)CC1 | % | 0.17 |
| CC1(C)CC2CC(C)(CN2c2ncnc3ccc(Br)cc23)C1 (configuration not stated) | % | -2.76 |
| CC(=O)NC1C(Oc2ccc(C=O)cc2)OC(COC(C)=O)C(OC(C)=O)C1OC(C)=O (configuration not stated) | % | -10.2 |
| O=c1nc(N/N=C/c2ccco2)cn[nH]1 | % | -3.99 |
| Nn1c(Cc2cccc3ccccc23)nnc1SCC(=O)N1CC(=O)Nc2ccccc21 | % | 15.1 |
| C/C(=N/Nc1nc(-c2ccccc2)c(CC(=O)O)s1)c1ccccc1 | % | 17 |
| Oc1c(C(c2cccs2)N2CCN(c3ccc(F)cc3)CC2)sc2ncnn12 (configuration not stated) | % | -6.82 |
| CCC(=O)c1ccc(OCC(O)CN2CC(C)OC(C)C2)cc1 (configuration not stated) | % | -8.04 |
| O=c1c2ccccc2nc2n1C(CSCc1cccc(C(F)(F)F)c1)CS2 (configuration not stated) | % | -8.83 |
